Cited source: ChEMBL document CHEMBL2010653

- TARGET UNDER TEST: Lysosomal acid glucosylceramidase (Homo sapiens, UniProt P04062)
- Sequence (P04062 whole entry): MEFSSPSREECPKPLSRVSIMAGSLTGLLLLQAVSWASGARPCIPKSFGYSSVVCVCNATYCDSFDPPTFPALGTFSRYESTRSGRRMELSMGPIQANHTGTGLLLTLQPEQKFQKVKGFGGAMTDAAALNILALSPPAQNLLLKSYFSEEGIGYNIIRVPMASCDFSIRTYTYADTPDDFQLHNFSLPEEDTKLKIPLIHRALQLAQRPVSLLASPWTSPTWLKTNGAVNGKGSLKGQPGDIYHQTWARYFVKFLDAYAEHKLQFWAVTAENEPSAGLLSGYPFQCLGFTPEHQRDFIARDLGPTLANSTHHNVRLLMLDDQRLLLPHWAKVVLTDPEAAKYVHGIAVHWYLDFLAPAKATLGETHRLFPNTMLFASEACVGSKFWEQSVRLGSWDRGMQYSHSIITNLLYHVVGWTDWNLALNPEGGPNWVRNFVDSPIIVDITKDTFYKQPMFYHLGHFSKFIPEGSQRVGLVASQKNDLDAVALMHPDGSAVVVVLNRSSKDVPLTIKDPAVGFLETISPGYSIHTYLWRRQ
- TEST PROTOCOL: Competitive inhibition of human recombinant beta-glucocerebrosidase assessed as 4-methyumbelliferone formation after 30 mins by Lineweaver-Burk plot analysis at pH 5.2
# key: entry, value: pKi
Convention used: pKi is expressed as -log10 of the molar concentration.

Use these answered entries as a reference point.
* CCCCCCCCCN[C@@H]1[C@H](O)[C@@H](O)[C@H](O)[C@@H](O)[C@@H]1NCCCCCCCCC.Cl.Cl | 7.59
* CCCCCCCCCN1C(=O)N(CCCCCCCCC)[C@H]2[C@H](O)[C@@H](O)[C@H](O)[C@@H](O)[C@H]21 | 6.15

QUERY: Please state recorded pKi (tested on Lysosomal acid glucosylceramidase (Homo sapiens, UniProt P04062)) of `CCCCCCCCCN[C@@H]1[C@H](N)[C@H](O)[C@@H](O)[C@H](O)[C@H]1O.Cl.Cl`
RESULT: 6.77

---

# key: entry, value: inhibition
- TARGET UNDER TEST: Lysosomal acid glucosylceramidase (Homo sapiens) (UniProt P04062)
- TEST PROTOCOL: Inhibition of wild type beta-glucocerebrosidase in human fibroblasts assessed as 4-methyumbelliferone formation at 5 uM after 24 hrs by fluorimetric analysis
# value in %; strip the unit string

* CCCCCCCCCN[C@@H]1[C@H](O)[C@@H](O)[C@H](O)[C@@H](O)[C@@H]1NCCCCCCCCC.Cl.Cl | 96
* CCCCCCCCCN1C(=O)N(CCCCCCCCC)[C@H]2[C@H](O)[C@@H](O)[C@H](O)[C@@H](O)[C@H]21 | 36
* Cl.Cl.N[C@@H]1[C@H](N)[C@H](O)[C@@H](O)[C@H](O)[C@H]1O | 17

Now for the molecule whose inhibition we want.
QUERY: # lookup: inhibition of `CCCCCCCCCN[C@@H]1[C@H](N)[C@H](O)[C@@H](O)[C@H](O)[C@H]1O.Cl.Cl`
RESULT: 50

---

# key: entry, value: IC50
- TARGET UNDER TEST: Lysosomal acid glucosylceramidase (Homo sapiens, UniProt P04062)
- TEST PROTOCOL: Inhibition of human recombinant beta-glucocerebrosidase assessed as 4-methyumbelliferone formation after 30 mins by spectrophotometric analysis at pH 7
# value in µM; strip the unit string

• CCCCCCCCCO[C@@H]1[C@H](O)[C@@H](O)[C@H](O)[C@@H](O)[C@@H]1OCCCCCCCCC = 49.3
• Cl.Cl.N[C@@H]1[C@H](N)[C@H](O)[C@@H](O)[C@H](O)[C@H]1O = 44.4
• CCCCCCCCCN[C@@H]1[C@H](O)[C@@H](O)[C@H](O)[C@@H](O)[C@@H]1NCCCCCCCCC.Cl.Cl = 0.056

QUERY: Please state recorded IC50 (tested on Lysosomal acid glucosylceramidase (Homo sapiens, UniProt P04062)) of `CCCCCCCCCN[C@@H]1[C@H](N)[C@H](O)[C@@H](O)[C@H](O)[C@H]1O.Cl.Cl`
RESULT: 0.081

QUERY: Moving on to the next molecule: `CCCCCCCCCN1C(=O)N(CCCCCCCCC)[C@H]2[C@H](O)[C@@H](O)[C@H](O)[C@@H](O)[C@H]21`
RESULT: 1.21
